# Target Under Test: Sodium-dependent serotonin transporter (Homo sapiens)
# Sequence (P31645 whole entry, looked up): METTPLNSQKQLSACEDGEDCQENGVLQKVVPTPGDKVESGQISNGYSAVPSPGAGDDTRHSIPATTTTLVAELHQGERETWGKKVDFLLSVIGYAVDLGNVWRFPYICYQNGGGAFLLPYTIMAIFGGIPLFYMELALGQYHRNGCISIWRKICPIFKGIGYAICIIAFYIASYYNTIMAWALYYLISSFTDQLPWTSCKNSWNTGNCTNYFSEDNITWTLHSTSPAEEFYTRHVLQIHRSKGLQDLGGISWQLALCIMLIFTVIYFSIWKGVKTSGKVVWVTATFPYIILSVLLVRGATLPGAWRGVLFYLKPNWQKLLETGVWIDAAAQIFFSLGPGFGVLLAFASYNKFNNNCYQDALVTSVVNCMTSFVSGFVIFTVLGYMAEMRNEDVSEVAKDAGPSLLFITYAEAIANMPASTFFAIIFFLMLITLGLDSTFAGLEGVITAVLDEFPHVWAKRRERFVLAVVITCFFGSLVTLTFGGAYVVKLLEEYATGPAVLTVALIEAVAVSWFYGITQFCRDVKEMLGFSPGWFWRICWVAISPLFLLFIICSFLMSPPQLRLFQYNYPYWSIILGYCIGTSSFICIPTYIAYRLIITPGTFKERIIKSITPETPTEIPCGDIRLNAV
# Protocol Summary: Inhibition of serotonin reuptake at human SERT expressed in HEK293 cells at 100 nM
Each entry gets rule not met if its inhibition stays under 40%, and rule met if its inhibition is 40% or above.

Sample answers from the record:
Could you tell me if the measured inhibition of CNCCC(c1ccc2cc(C)ccc2c1)n1ncnn1 (racemic) reaches 40% or more?
rule met

// query: CNCCC(c1ccc2cc(OC)ccc2c1)n1ncnn1 (racemic)
rule met

// query: CNCC[C@H](c1ccc2ccccc2c1)n1nnc(C)n1
rule not met

// query: CNCCC(c1ccc2cc(F)ccc2c1)n1ncnn1 (racemic)
rule met

// query: CNCC[C@@H](c1ccc2ccccc2c1)n1nnc(C)n1
rule met

Continuing:
Could you tell me if the measured inhibition of Cc1nnn(C(CCN(C)C)c2ccc3cc(F)ccc3c2)n1 (racemic) reaches 40% or more?
rule met

// query: CNCCC(c1ccc2ccccc2c1)n1ncnn1 (racemic)
rule met

// query: CNCCC(c1ccc2cc(OC)ccc2c1)n1nnc(C)n1 (racemic)
rule met

// query: CN(C)CCC(c1ccc2cc(F)ccc2c1)n1ncnn1 (racemic)
rule met

// query: CN(C)CCC(c1ccc(Cl)c(Cl)c1)n1ncnn1 (racemic)
rule not met

// query: CNCCC(c1ccc2cc(Cl)ccc2c1)n1ncnn1 (racemic)
rule not met

// query: CN(C)CCC(c1ccc2cc(Cl)ccc2c1)n1ncnn1 (racemic)
rule met

// query: CNCC[C@@H](c1ccc(Cl)c(Cl)c1)n1nnc(C)n1
rule met
